- test-name: Cmax in mouse at 46.3 mg/kg, po
- Format: ADME, organism-based
- Parameters: dose 46.3 mg/kg, route oral
- settings: in vivo
property: Cmax (µM)
Numbers only, in µM.

Data request, read-out Cmax, for `O=C(Nc1ccc(Cl)c(Cl)c1)Nc1ccc(Cl)c(Cl)c1`
4.4

* * *

Can you tell me AUC(0-t) for the items I'm about to list?
- test-name: AUC (0 to last) in Swiss mouse at 100 mg/kg, po administered as single dose via gavage by LC-MS analysis
- Format: ADME, organism-based
- Set-up: dose 100 mg/kg, time 0 - last, route oral
- settings: in vivo
One number for each entry, in µM·h.

O=C(Nc1ccc2c(c1)OC(F)(F)O2)Nc1ccc2c(c1)OC(F)(F)O2 : 679
O=C(Nc1ccnc(C(F)(F)F)c1)Nc1ccnc(C(F)(F)F)c1 : 953
O=C(Nc1ccc2c(c1)OC(F)(F)O2)Nc1ccc(F)c(C(F)(F)F)c1 : 989
O=C(Nc1ccnc(C(F)(F)F)c1)Nc1ccc(F)c(C(F)(F)F)c1 : 1490

For every item in the list below, what is its measured AUC(0-t)?
1. O=C(Nc1ccnc(C(F)(F)F)c1)Nc1ccc2c(c1)OC(F)(F)O2
2. O=C(Nc1ccc(F)c(C(F)(F)F)c1)Nc1ccc(F)c(C(F)(F)F)c1

1: 2270; 2: 394

For every item in the list below, what is its measured AUC(0-t)?
1. N#Cc1ccc(NC(=O)Nc2ccnc(C(F)(F)F)c2)cc1
2. N#Cc1ccc(NC(=O)Nc2ccc(F)c(C(F)(F)F)c2)cc1

1: 175; 2: 216

* * *

Can you tell me concentration at 48 h for the items I'm about to list?
- test-name: Plasma concentration in Swiss mouse at 100 mg/kg, po administered as single dose via gavage measured up to 48 hrs by LC-MS analysis
- Format: ADME, organism-based

Previously resolved entries follow.
O=C(Nc1ccc2c(c1)OC(F)(F)O2)Nc1ccc(F)c(C(F)(F)F)c1 : > 5 µM
O=C(Nc1ccnc(C(F)(F)F)c1)Nc1ccc2c(c1)OC(F)(F)O2 : > 5 µM
O=C(Nc1ccc2c(c1)OC(F)(F)O2)Nc1ccc2c(c1)OC(F)(F)O2 : > 5 µM

# input for lookup
Data request, read-out concentration at 48 h, for `O=C(Nc1ccc(F)c(C(F)(F)F)c1)Nc1ccc(F)c(C(F)(F)F)c1`
> 1 µM

* * *

Can you tell me chromatographic logD for the items I'm about to list?
- test-name: Octanol-[…] partition coefficient, log D of the compound at pH 7.4 by RP-HPLC method
One number for each entry.

Previously resolved entries follow.
N#Cc1ccc(NC(=O)Nc2ccnc(C(F)(F)F)c2)cc1 : 3
O=C(Nc1ccnc(C(F)(F)F)c1)Nc1ccc(F)c(C(F)(F)F)c1 : 3.8
NC(=O)c1ccccc1NC(=O)Nc1ccc(F)c(C(F)(F)F)c1 : 3.3

For every item in the list below, what is its measured chromatographic logD?
1. O=C(Nc1ccncc1)Nc1ccncc1
2. O=C(Nc1ccnc(C(F)(F)F)c1)Nc1ccnc(C(F)(F)F)c1
3. O=C(Nc1cccc(C(=O)O)c1)Nc1ccc(F)c(C(F)(F)F)c1
4. O=C(Nc1ccc2c(c1)OC(F)(F)O2)Nc1ccc2c(c1)OC(F)(F)O2
5. CC(=O)c1ccc(NC(=O)Nc2ccc(F)c(C(F)(F)F)c2)cc1
6. N#Cc1ccc(NC(=O)Nc2ccc(F)c(C(F)(F)F)c2)cc1
7. O=C(Nc1ccnc(C(F)(F)F)c1)Nc1ccc2c(c1)OC(F)(F)O2

1.3
3
1.6
4.4
3.6
3.8
3.7

Data request, read-out chromatographic logD, for `O=C(Nc1ccc(C(=O)O)cc1)Nc1ccc(F)c(C(F)(F)F)c1`
1.5

These measurements were taken from ChEMBL document CHEMBL4184124.
